# ASSAY_EXPLANATION: Single oral dose human plasma pharmacokinetics of D, DA and DOH after Cogni.Q
# Assay type: in vivo
# MEASUREMENT_PARAMETERS: human, plasma, oral, 4 Cogni.Q vegicaps, subject S17 (147 lb); read-out: Terminal t1/2, h (converted)

[
  {
    "COMPOUND": "CC(C)=CC(=O)O[C@H]1Cc2cc3ccc(=O)oc3cc2OC1(C)C [D, decursin]",
    "half-life / h": 22.7
  },
  {
    "COMPOUND": "CC1(C)Oc2cc3oc(=O)ccc3cc2C[C@@H]1O [DOH, decursinol]",
    "half-life / h": 10.2
  },
  {
    "COMPOUND": "C/C=C(/C)C(=O)O[C@H]1Cc2cc3ccc(=O)oc3cc2OC1(C)C [DA, decursinol angelate]",
    "half-life / h": 24.2
  }
]

----------
# ASSAY_EXPLANATION: Single oral dose human plasma pharmacokinetics of D, DA and DOH after Cogni.Q
# Assay type: in vivo
# MEASUREMENT_PARAMETERS: human, plasma, oral, 4 Cogni.Q vegicaps, subject S3 (170 lb); read-out: Cmax
This listing pairs molecules with measured Cmax.

[
  {
    "MOLECULE": "CC1(C)Oc2cc3oc(=O)ccc3cc2C[C@@H]1O",
    "Cmax (nM)": 1560
  },
  {
    "MOLECULE": "C/C=C(/C)C(=O)O[C@H]1Cc2cc3ccc(=O)oc3cc2OC1(C)C [DA, decursinol angelate]",
    "Cmax (nM)": 27.2
  },
  {
    "MOLECULE": "CC(C)=CC(=O)O[C@H]1Cc2cc3ccc(=O)oc3cc2OC1(C)C",
    "Cmax (nM)": 1.6
  }
]

----------
# ASSAY_EXPLANATION: Single oral dose human plasma pharmacokinetics of D, DA and DOH after Cogni.Q
# Format: in vivo
# MEASUREMENT_PARAMETERS: human, plasma, oral, 4 Cogni.Q vegicaps, subject S7 (180 lb); read-out: Cmax
This listing pairs compounds with measured Cmax.

[
  {
    "COMPOUND": "C/C=C(/C)C(=O)O[C@H]1Cc2cc3ccc(=O)oc3cc2OC1(C)C [DA, decursinol angelate]",
    "Cmax, nM": 74.3
  },
  {
    "COMPOUND": "CC(C)=CC(=O)O[C@H]1Cc2cc3ccc(=O)oc3cc2OC1(C)C",
    "Cmax, nM": 3.6
  },
  {
    "COMPOUND": "CC1(C)Oc2cc3oc(=O)ccc3cc2C[C@@H]1O",
    "Cmax, nM": 3970
  }
]

----------
# ASSAY_EXPLANATION: Single oral dose human plasma pharmacokinetics of D, DA and DOH after Cogni.Q
# Assay type: in vivo
# MEASUREMENT_PARAMETERS: human, plasma, oral, 4 Cogni.Q vegicaps, subject S17 (147 lb); read-out: AUC0-48h

[
  {
    "COMPOUND": "CC(C)=CC(=O)O[C@H]1Cc2cc3ccc(=O)oc3cc2OC1(C)C [D, decursin]",
    "AUC(0-t)": "0.0539 µM·h"
  },
  {
    "COMPOUND": "C/C=C(/C)C(=O)O[C@H]1Cc2cc3ccc(=O)oc3cc2OC1(C)C [DA, decursinol angelate]",
    "AUC(0-t)": "0.593 µM·h"
  },
  {
    "COMPOUND": "CC1(C)Oc2cc3oc(=O)ccc3cc2C[C@@H]1O [DOH, decursinol]",
    "AUC(0-t)": "46.7 µM·h"
  }
]

----------
# ASSAY_EXPLANATION: Single oral dose human plasma pharmacokinetics of D, DA and DOH after Cogni.Q
# Assay type: in vivo
# MEASUREMENT_PARAMETERS: female, human, plasma, oral, Women, outliers excluded (S1 Table); read-out: Terminal t1/2, h, Mean, F (converted)

[
  {
    "COMPOUND": "CC1(C)Oc2cc3oc(=O)ccc3cc2C[C@@H]1O [DOH, decursinol]",
    "half-life, h": 8.3
  },
  {
    "COMPOUND": "CC(C)=CC(=O)O[C@H]1Cc2cc3ccc(=O)oc3cc2OC1(C)C [D, decursin]",
    "half-life, h": 17
  },
  {
    "COMPOUND": "C/C=C(/C)C(=O)O[C@H]1Cc2cc3ccc(=O)oc3cc2OC1(C)C [DA, decursinol angelate]",
    "half-life, h": 23.7
  }
]

----------
This listing pairs molecules with measured Tmax.
# ASSAY_EXPLANATION: Single oral dose human plasma pharmacokinetics of D, DA and DOH after Cogni.Q
# Type: in vivo
# MEASUREMENT_PARAMETERS: human, plasma, oral, 4 Cogni.Q vegicaps, subject S15 (177 lb); read-out: Tmax
# Experimental: Ten healthy male and 10 female subjects were recruited by public announcement in Amarillo, TX, from January 2013 to April 2013 (see Fig. 1 CONSORT diagram). […] Plasma was prepared by centrifuging the heparinized blood at 1000 g for 15 minutes at room temperature. Urine samples (40mL) were collected within time spans of 0–4, 4–8, 8–12 and 12–24 hours (total volume of urine was recorded). […]
ASSAY_READOUT: Tmax

[
  {
    "MOLECULE": "CC(C)=CC(=O)O[C@H]1Cc2cc3ccc(=O)oc3cc2OC1(C)C",
    "ASSAY_READOUT": "Tmax",
    "RESULT_VALUE": "1 h"
  },
  {
    "MOLECULE": "C/C=C(/C)C(=O)O[C@H]1Cc2cc3ccc(=O)oc3cc2OC1(C)C [DA, decursinol angelate]",
    "ASSAY_READOUT": "Tmax",
    "RESULT_VALUE": "1 h"
  },
  {
    "MOLECULE": "CC1(C)Oc2cc3oc(=O)ccc3cc2C[C@@H]1O",
    "ASSAY_READOUT": "Tmax",
    "RESULT_VALUE": "1 h"
  }
]

----------
# ASSAY_EXPLANATION: Single oral dose human plasma pharmacokinetics of D, DA and DOH after Cogni.Q
# Assay type: in vivo
# MEASUREMENT_PARAMETERS: human, plasma, oral, 4 Cogni.Q vegicaps, subject S14 (200 lb); read-out: Terminal t1/2, h (converted)
# Description: Ten healthy male and 10 female subjects were recruited by public announcement in Amarillo, TX, from January 2013 to April 2013 (see Fig. 1 CONSORT diagram). […] Plasma was prepared by centrifuging the heparinized blood at 1000 g for 15 minutes at room temperature. Urine samples (40mL) were collected within time spans of 0–4, 4–8, 8–12 and 12–24 hours (total volume of urine was recorded). […]

[
  {
    "MOLECULE": "CC1(C)Oc2cc3oc(=O)ccc3cc2C[C@@H]1O",
    "half-life (h)": 5.3
  },
  {
    "MOLECULE": "CC(C)=CC(=O)O[C@H]1Cc2cc3ccc(=O)oc3cc2OC1(C)C",
    "half-life (h)": 4.5
  },
  {
    "MOLECULE": "C/C=C(/C)C(=O)O[C@H]1Cc2cc3ccc(=O)oc3cc2OC1(C)C [DA, decursinol angelate]",
    "half-life (h)": 12.6
  }
]

----------
# ASSAY_EXPLANATION: Single oral dose human plasma pharmacokinetics of D, DA and DOH after Cogni.Q
# Assay type: in vivo
# MEASUREMENT_PARAMETERS: human, plasma, oral, 4 Cogni.Q vegicaps, subject S5 (161 lb); read-out: AUC0-48h

[
  {
    "COMPOUND": "C/C=C(/C)C(=O)O[C@H]1Cc2cc3ccc(=O)oc3cc2OC1(C)C [DA, decursinol angelate]",
    "AUC(0-t) [µM·h]": 0.293
  },
  {
    "COMPOUND": "CC1(C)Oc2cc3oc(=O)ccc3cc2C[C@@H]1O",
    "AUC(0-t) [µM·h]": 19.2
  },
  {
    "COMPOUND": "CC(C)=CC(=O)O[C@H]1Cc2cc3ccc(=O)oc3cc2OC1(C)C",
    "AUC(0-t) [µM·h]": 0.0343
  }
]

----------
# ASSAY_EXPLANATION: Single oral dose human plasma pharmacokinetics of D, DA and DOH after Cogni.Q
# Type: in vivo
# MEASUREMENT_PARAMETERS: human, plasma, oral, subject S20 (200 lb); read-out: AUC0-48h
This listing pairs molecules with measured AUC(0-t).

[
  {
    "MOLECULE": "CC1(C)Oc2cc3oc(=O)ccc3cc2C[C@@H]1O [DOH, decursinol]",
    "AUC(0-t), µM·h": 17.9
  },
  {
    "MOLECULE": "C/C=C(/C)C(=O)O[C@H]1Cc2cc3ccc(=O)oc3cc2OC1(C)C [DA, decursinol angelate]",
    "AUC(0-t), µM·h": 0.17
  },
  {
    "MOLECULE": "CC(C)=CC(=O)O[C@H]1Cc2cc3ccc(=O)oc3cc2OC1(C)C [D, decursin]",
    "AUC(0-t), µM·h": 0.0191
  }
]
